Entries and their gMFI values follow.
test.system: T1, murine CD300LB stably expressed on Jurkat cells (mouse, UniProt Q3U497 18-209)
T1 construct: also called muCD300LB; mouse CD300LB
T1 sequence: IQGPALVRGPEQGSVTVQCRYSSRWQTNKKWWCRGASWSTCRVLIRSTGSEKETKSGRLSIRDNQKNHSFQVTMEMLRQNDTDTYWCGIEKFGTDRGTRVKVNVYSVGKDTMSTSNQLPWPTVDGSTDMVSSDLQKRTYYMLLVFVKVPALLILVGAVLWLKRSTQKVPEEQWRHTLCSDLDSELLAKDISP
procedure.summary: flow cytometry, stable Jurkat cells, supernatant or 10 ug/mL, isotype subtracted
Write down the numeric answer in gMFI and omit the unit.

Record excerpt, results attached:
anti-CD300LB antibody CD-10 (antibody, V domains shown) VH: QVQLQQSGPELVRPGVSVKISCKGSGYTFTDYAMHWVKQSHVRSREWIGVIGTYNGHTNYNQKFKGKATMTVDKSSSTAYLELARLTSEDSAIYYCARSGSYYYSMDYWGQGTSVTVSS VL: QIVLTQSPAIMSASPGEKVTMTCSASSSVNYMHWYQQKSGTSPKRWIYDTSKLSSGVPARFSGSGSGTSYSLTISTMEAEDAATYYCQQWSSNPPMTFGGGTKLEIK; 284
anti-CD300LB antibody CD-05 (antibody, V domains shown) VH: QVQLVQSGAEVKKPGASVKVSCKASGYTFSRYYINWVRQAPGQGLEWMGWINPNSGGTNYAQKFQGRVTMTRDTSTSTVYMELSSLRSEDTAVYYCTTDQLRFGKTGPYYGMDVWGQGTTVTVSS VL: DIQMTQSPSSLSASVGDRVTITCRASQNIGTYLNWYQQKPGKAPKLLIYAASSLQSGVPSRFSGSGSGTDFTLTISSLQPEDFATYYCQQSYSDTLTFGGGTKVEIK; 172

Fill in gMFI for record anti-CD300LB antibody CD-01 (antibody, V domains shown) VH: RVQLQQSGAELVRPGASVTLSCKASGFTFTDFEMHWVKKTPVHGLEWIGAIDPESGNTAYNQKFRGKATLTADKSSSTAYMELRYLTSEDSAVYYCTPLISGADYWGQGTTLTVSS VL: DVVMTQSPLSLPVSLGDQASISCRSSQSLVHSDGNTYLYWYLQKPGQSPKLLIYKVSNRFSGVPDRFSGSGSGTDFTFKISRVGAEDLGVYFCSQSTHVPWTFGGGTKLEII
860
